Reference for the values: paper PMC8699473

- experimental.protocol: Long-term stability in spiked pooled human plasma
- experimental.conditions: validation standard LLOV
I'd appreciate it if you could supply Long-term stability, 1 month, -80°C Accuracy [%] values for the items below.
Answers are plain numbers, in %.

Below are worked cases with known answers.
{"compound": "CC(=O)Nc1cccc(-n2c(=O)n(C3CC3)c(=O)c3c(Nc4ccc(I)cc4F)n(C)c(=O)c(C)c32)c1 [Trametinib]", "value": 101.9}
{"compound": "O=c1[nH]c(=O)n([C@H]2C[C@H](O)[C@@H](CO)O2)cc1C(F)(F)F [Trifluridine]", "value": 95.2}
{"compound": "Cc1ccc(NC(=O)c2ccc(CN3CCN(C)CC3)cc2)cc1Nc1nccc(-c2cccnc2)n1 [Imatinib]", "value": 77.3}
{"compound": "Cn1cnc2c(F)c(Nc3ccc(Br)cc3F)c(C(=O)NOCCO)cc21 [Binimetinib]", "value": 106.3}

QUERY: Look up Long-term stability, 1 month, -80°C Accuracy [%] of O=C(c1ccc(F)c(F)c1Nc1ccc(I)cc1F)N1CC(O)([C@@H]2CCCCN2)C1 [Cobimetinib] and report it.
RESULT: 99.0
